Target: Inosine-5'-monophosphate dehydrogenase 2 (Homo sapiens)
Assay: Inhibition of human recombinant inosine monophosphate dehydrogenase type II.
IC50 by entry:
Unit nM implied. Number only.

// solved cases for IC50 follow
smiles_entry=COc1c(C)c(C)c(Cl)c(N)c1C/C=C(\C)CCC(=O)O target_system="Inosine-5'-monophosphate dehydrogenase 2 (Homo sapiens)" data_value=489
smiles_entry=C/C(=C\Cc1c(C)c(C)c(C)c([N+](=O)[O-])c1O)CCC(=O)O target_system="Inosine-5'-monophosphate dehydrogenase 2 (Homo sapiens)" data_value=289
smiles_entry=C=Cc1c(C)c2c(c(O)c1C/C=C(\C)CCC(=O)O)C(=O)OC2 target_system="Inosine-5'-monophosphate dehydrogenase 2 (Homo sapiens)" data_value=8.51
smiles_entry=COc1c(C/C=C(\C)CCC(=O)O)cc([N+](=O)[O-])c(C)c1C target_system="Inosine-5'-monophosphate dehydrogenase 2 (Homo sapiens)" data_value=1220
smiles_entry=COc1c(C)c(C)c(Br)c(N)c1C/C=C(\C)CCC(=O)O target_system="Inosine-5'-monophosphate dehydrogenase 2 (Homo sapiens)" data_value=462
smiles_entry=C/C(=C\Cc1c(O)c2c(c(C)c1C(N)=O)COC2=O)CCC(=O)O target_system="Inosine-5'-monophosphate dehydrogenase 2 (Homo sapiens)" data_value=231
smiles_entry=COc1c(C/C=C(\C)CCC(=O)O)cc(N)c(C)c1C target_system="Inosine-5'-monophosphate dehydrogenase 2 (Homo sapiens)" data_value=17000
smiles_entry=COc1c(C/C=C(\C)CCC(=O)O)cc(Cl)c(C)c1C target_system="Inosine-5'-monophosphate dehydrogenase 2 (Homo sapiens)" data_value=537
smiles_entry=C/C(=C\Cc1c(C)c(C)c(C)c(Cl)c1O)CCC(=O)O target_system="Inosine-5'-monophosphate dehydrogenase 2 (Homo sapiens)" data_value=69.3
smiles_entry=C/C(=C\Cc1c(O)c(C)c2c(c1O)C(=O)OC2)CCC(=O)O target_system="Inosine-5'-monophosphate dehydrogenase 2 (Homo sapiens)" data_value=87.7

Value of IC50 reported for the molecule `COc1c(C)c(C)c([N+](=O)[O-])c(O)c1C/C=C(\C)CCC(=O)O` is 184

###

Target: Inosine-5'-monophosphate dehydrogenase 2 (Homo sapiens, UniProt P12268)
Experiment: Inhibition of human recombinant type II Inosine Monophosphate Dehydrogenase. at pH 8.0
Listing of entries alongside the reported pIC50.
// pIC50 is dimensionless: -log10 of concentration (M)

The cases that follow already have their pIC50 on record.
molecule=COc1c(C/C=C(\C)CCC(=O)O)c(O)c2c(c1OC)COC2=O data_value=6.90
molecule=COc1cc2c(c(O)c1C/C=C(\C)CCC(=O)O)C(=O)OC2 data_value=6.29
molecule=CCOc1c(C)c2c(c(O)c1C/C=C(\C)CCC(=O)O)C(=O)OC2 data_value=7.05

Form field pIC50, entry COc1c(C)c2c(c(O)c1C/C=C(\C)CCC(=O)O)C(=O)OC2C (stereo not drawn) : 6.38

For reference, reported pIC50 for `C/C(=C\Cc1c(C)c(C)c2c(c1O)C(=O)OC2)CCC(=O)O` stands at 7.73

The reported pIC50 of the molecule `COc1c(C)c2c(c(O)c1C/C=C(\C)CCC(=O)O)C(=O)NC2` was 6.61

###

Target: Inosine-5'-monophosphate dehydrogenase 2 (Homo sapiens)
Assay: Inhibition of human recombinant inosine monophosphate dehydrogenase type II.
Lab note: compare IC50 with 1000 nM, writing T if less and F if equal or more.

Use the examples below as a reference point.
smiles_entry=C/C(=C\Cc1c(O)c2c(c(C)c1-c1ccccc1)COC2=O)CCC(=O)O answer_label=T
smiles_entry=COc1c(C)c(C)c(Br)c(O)c1C/C=C(\C)CCC(=O)O answer_label=T
smiles_entry=CCc1c(C)c2c(c(O)c1C/C=C(\C)CCC(=O)O)C(=O)OC2 answer_label=T
smiles_entry=COc1c(C)c(C)c([N+](=O)[O-])c(N)c1C/C=C(\C)CCC(=O)O answer_label=T
smiles_entry=COc1c(C)c(C)c(Cl)c(O)c1C/C=C(\C)CCC(=O)O answer_label=T

# input Check if IC50 falls below 1000 nM for `COc1c(C)c(C)c(C=O)c(O)c1C/C=C(\C)CCC(=O)O` .
# output F

# input Does the reported IC50 of `COc1c(C/C=C(\C)CCC(=O)O)cc(C#N)c(C)c1C` stay below 1000 nM?
# output F

# input API: query returns whether the compound falls strictly under 1000 nM in IC50. Query: `COc1c(C)c(C)cc(O)c1C/C=C(\C)CCC(=O)O`
# output F

# input Dear colleague, could you confirm whether IC50 of `COc1c(C)c(C)c(OC)c(C/C=C(\C)CCC(=O)O)c1O` falls below 1000 nM? Thanks.
# output F

# input Regarding `COc1c(C)c2c(c(O)c1C/C=C(\C)CCC(=O)O)C(=O)SC2` , kindly confirm whether its IC50 is beneath 1000 nM.
# output T

# input Is it true that IC50 reported for `C/C(=C\Cc1c(C)c(C)c(C)c(Br)c1O)CCC(=O)O` is less than 1000 nM?
# output T

###

Species on record: Homo sapiens
Experiment: Inhibition of human Lymphocyte proliferation. The IC50 values were determined by interpolation using cubic spline determination.
Assay type: functional
# maps each entry to its log10 IC50
Hello, just confirming the data are log10 of IC50 with units of µM.

Study these solved cases before continuing.
compound=COc1c(Br)c2c(c(O)c1C/C=C(\C)CCC(=O)O)C(=O)OC2 data_value=0.60
compound=CCc1c2c(c(O)c(C/C=C(\C)CCC(=O)O)c1OC)C(=O)OC2 data_value=0.48
compound=C/C(=C\Cc1c(C)c(C)c(C)c(Cl)c1O)CCC(=O)O data_value=-0.44
compound=COc1c(C)c(C)c(Cl)c(O)c1C/C=C(\C)CCC(=O)O data_value=-0.70
compound="COc1c(C)c2c(c(O)c1C/C=C(\\C)CCC(=O)O)C(=O)OC2C (configuration not stated)" data_value=-0.22

For record `COc1c(C)c2c(c(O)c1C/C=C(\C)CCC(=O)O)C(=O)CC2` the listed log10 IC50 is -0.08

###

Species: Homo sapiens
Experiment: Compound was tested for inhibition of human Lymphocyte proliferation. The IC50 values were determined by interpolation using the cubic spline determination at 10 uM
Format: functional
quantity.name: IC50

smiles_entry=CO/N=C/c1c(C)c(C)c(OC)c(C/C=C(\C)CCC(=O)O)c1O data_value="> 10 µM"

Per the record, `COc1c(C)c(C)c(/C=N/O)c(O)c1C/C=C(\C)CCC(=O)O` has IC50 of > 10 µM

###

Organism: Homo sapiens
Assay: Inhibition of human Lymphocyte proliferation. The IC50 values were determined by interpolation using cubic spline determination.
Format: functional
Reported values of IC50 for individual entries

smiles_entry=C/C(=C\Cc1c(O)c(C)c2c(c1O)C(=O)OC2)CCC(=O)O data_value="> 10 µM"
smiles_entry=COc1c(C#N)c2c(c(O)c1C/C=C(\C)CCC(=O)O)C(=O)OC2 data_value="> 10 µM"

Lab note: next compound to report on.
Given item `C/C(=C\Cc1c(O)c2c(c(C)c1C(N)=O)COC2=O)CCC(=O)O` , the value recorded as its IC50 is > 10 µM

###

Molecular target: Inosine-5'-monophosphate dehydrogenase 2 (Homo sapiens)
Assay: Inhibition of human recombinant type II Inosine Monophosphate Dehydrogenase at 100 uM
The entries below come with measured IC50 values attached.
Unit µM implied. Number only.

smiles_entry=COc1c(C)c(C)c(Cl)c(C)c1C/C=C(\C)CCC(=O)O unit=µM data_value=1.7
smiles_entry=COc1c(C)c(C)c(Cl)c(Cl)c1C/C=C(\C)CCC(=O)O unit=µM data_value=0.557
smiles_entry=COc1c(C)c(C)c(Br)c(Cl)c1C/C=C(\C)CCC(=O)O unit=µM data_value=1.04
smiles_entry=COc1c(C)c(C)c(/C=N/O)c(O)c1C/C=C(\C)CCC(=O)O unit=µM data_value=11.9
smiles_entry=CO/N=C/c1c(C)c(C)c(OC)c(C/C=C(\C)CCC(=O)O)c1O unit=µM data_value=52.8
smiles_entry=COc1c(C/C=C(\C)CCC(=O)O)cc(Br)c(C)c1C unit=µM data_value=0.795
smiles_entry=COc1c(C)c(C)c(O)c(Cl)c1C/C=C(\C)CCC(=O)O unit=µM data_value=2.88

// moving on: another record for IC50
get_value(item= `COc1c(C)c(C)c(F)c(Cl)c1C/C=C(\C)CCC(=O)O` , readout=IC50) returns 11.8

###

Target: UniProt P12268
Test: Inhibition of human recombinant inosine monophosphate dehydrogenase type II.
quantity.name: IC50
Remember to put the unit after the number in your answer.

Previously resolved entries follow.
smiles_entry=COc1cc(C/C=C(\C)CCC(=O)O)c(OC)c(C)c1C data_value="50000 nM"
smiles_entry=C/C(=C\Cc1c(C)c(C)c(C)c(Br)c1N)CCC(=O)O data_value="763 nM"
smiles_entry=COc1c(C)c(C)c(Cl)c(F)c1C/C=C(\C)CCC(=O)O data_value="437 nM"

The compound `C/C(=C\Cc1c(N)cc(C)c(C)c1C)CCC(=O)O` showed IC50 equal to 90800 nM

Noted for `COc1c(C)c(C)c(C#N)c(O)c1C/C=C(\C)CCC(=O)O` : its IC50 reads 534 nM

Given item `COc1c(C)c2c(c(O)c1C/C=C(\C)CCC(=O)O)C(=O)CC2` , the value recorded as its IC50 is 140 nM

// IC50 value for `C/C(=C\Cc1c(O)c2c(c(C)c1C1CC1)COC2=O)CCC(=O)O` : 50.7 nM
